Entry source: ChEMBL document CHEMBL1124059

# Organism: Rattus norvegicus
# measurement-description: Inhibition of the rat conditioned avoidance response, CAR (Tranquilizing activity, peroral)
# Type: functional
# assay-setup: po
Returns: string. Value is True if measured ED50 is below 60 mg/kg, and False if it is greater than or equal to it.

(Q) Is the reported ED50 for "CC1(C)CC(=O)N(CCCCN2CCN(c3ncccc3Cl)CC2)C(=O)C1" strictly below 60 mg/kg?
(A) True

(Q) Is the reported ED50 for "O=C1CSC(=O)N1CCCCN1CCN(c2ccccn2)CC1" strictly below 60 mg/kg?
(A) True

(Q) Is the reported ED50 for "COC(=O)c1cccnc1N1CCN(CCCCN2C(=O)CC(C)(C)CC2=O)CC1" strictly below 60 mg/kg?
(A) True
